- target-or-system: DYRK1A (Homo sapiens, UniProt Q13627)
- measurement-notes: Recombinant protein kinase assay, DYRK1A
- assay-setup: 15 µM ATP
metric: IC50 (µM)
Give bare numbers, in µM.

>>> value_reported("COc1cc(/C=C2\\N=C(Nc3ccc(N4CCN(C)CC4)cc3)NC2=O)ccc1O [L99]")
0.014

Identify IC50 associated with the molecule O=C1NC(Nc2ccccc2)=N/C1=C\c1ccc2c(c1)OCCCO2 [L43]
7.4

###

- target-or-system: CLK1 (Mus musculus, UniProt P22518)
- Sequence (P22518 whole entry): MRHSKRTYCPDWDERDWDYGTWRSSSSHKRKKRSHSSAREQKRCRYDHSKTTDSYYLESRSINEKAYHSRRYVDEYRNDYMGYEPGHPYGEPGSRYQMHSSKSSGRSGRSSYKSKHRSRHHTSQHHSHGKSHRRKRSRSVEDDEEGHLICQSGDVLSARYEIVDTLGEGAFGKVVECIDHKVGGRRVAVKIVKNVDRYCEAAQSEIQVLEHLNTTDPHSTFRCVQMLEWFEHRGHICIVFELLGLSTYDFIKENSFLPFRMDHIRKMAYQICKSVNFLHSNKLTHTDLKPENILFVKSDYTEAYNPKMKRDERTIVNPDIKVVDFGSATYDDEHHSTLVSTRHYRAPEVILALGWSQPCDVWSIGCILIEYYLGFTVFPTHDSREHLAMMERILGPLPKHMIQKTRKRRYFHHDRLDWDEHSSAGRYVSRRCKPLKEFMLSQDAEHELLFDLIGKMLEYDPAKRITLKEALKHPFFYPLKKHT
- measurement-notes: Recombinant protein kinase assay, CLK1
- Type: biochemical
metric: pIC50
Numbers only, as −log10 of the molar value.

Report the value of pIC50 obtained on CLK1 (Mus musculus, UniProt P22518) for O=C1NC(Nc2ccccc2)=N/C1=C\c1ccc2c(c1)OCO2 .
7.64

###

- target-or-system: CLK3 (Mus musculus)
- Sequence (O35492 whole entry): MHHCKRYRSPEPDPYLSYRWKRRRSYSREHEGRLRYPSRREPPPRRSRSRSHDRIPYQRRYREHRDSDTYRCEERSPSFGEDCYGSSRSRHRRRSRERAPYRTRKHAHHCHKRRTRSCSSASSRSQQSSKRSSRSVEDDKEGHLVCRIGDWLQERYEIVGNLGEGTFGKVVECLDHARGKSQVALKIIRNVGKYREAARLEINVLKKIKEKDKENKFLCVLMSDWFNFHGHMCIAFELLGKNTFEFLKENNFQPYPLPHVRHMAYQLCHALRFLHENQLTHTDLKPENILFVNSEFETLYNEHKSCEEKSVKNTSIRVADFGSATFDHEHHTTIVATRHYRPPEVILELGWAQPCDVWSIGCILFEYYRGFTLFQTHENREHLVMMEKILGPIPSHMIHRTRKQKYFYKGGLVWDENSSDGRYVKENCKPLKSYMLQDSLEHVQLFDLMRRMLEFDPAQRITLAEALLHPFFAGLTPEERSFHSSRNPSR
- measurement-notes: Recombinant protein kinase assay, CLK3
- Assay type: biochemical
- assay-setup: 15 µM ATP; read-out: IC50 CLK3
Would you kindly list IC50 for each of these molecules?

>>> value_reported("COc1cc(/C=C2\\N=C(Nc3ccc(N4CCN(C)CC4)cc3)NC2=O)ccc1O")
"0.7 µM"

# input for lookup
Identify IC50 associated with the molecule O=C1NC(Nc2ccccc2)=N/C1=C\c1ccc2c(c1)OCCCO2
> 10 µM

###

- target-or-system: CLK3 (Mus musculus)
- measurement-notes: Recombinant protein kinase assay, CLK3
- Type: biochemical
metric: pIC50
Give bare numbers, as −log10 of the molar value.

Report the value of pIC50 obtained on CLK3 (Mus musculus) for O=C1NC(Nc2ccccc2)=N/C1=C\c1ccc2c(c1)OCO2 .
5.92

###

Would you kindly list IC50 for each of these molecules?
- target-or-system: CK2 (Homo sapiens, UniProt P68400)
- Construct: Cochet
- Sequence (P68400 whole entry): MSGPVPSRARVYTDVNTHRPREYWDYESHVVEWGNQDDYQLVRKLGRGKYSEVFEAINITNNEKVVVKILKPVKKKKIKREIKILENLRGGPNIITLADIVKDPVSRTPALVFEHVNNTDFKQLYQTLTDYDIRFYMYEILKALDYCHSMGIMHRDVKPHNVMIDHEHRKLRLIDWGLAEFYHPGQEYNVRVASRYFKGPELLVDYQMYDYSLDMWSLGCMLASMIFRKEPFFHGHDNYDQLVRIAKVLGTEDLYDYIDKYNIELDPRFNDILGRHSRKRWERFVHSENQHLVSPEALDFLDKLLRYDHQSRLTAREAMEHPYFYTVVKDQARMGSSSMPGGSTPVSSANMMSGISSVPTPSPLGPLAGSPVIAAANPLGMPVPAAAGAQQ
- measurement-notes: Recombinant protein kinase assay, CK2
- assay-setup: 15 µM ATP

The examples below pair each entry with its known result.
>>> value_reported("O=C1NC(Nc2ccccc2)=N/C1=C\\c1ccc2c(c1)OCCCO2 [L43]")
"> 10 µM"
>>> value_reported("O=C1NC(Nc2ccccc2)=N/C1=C\\c1ccc2c(c1)OCO2 [L41]")
"0.51 µM"

# input for lookup
Identify IC50 associated with the molecule COc1cc(/C=C2\N=C(Nc3ccc(N4CCN(C)CC4)cc3)NC2=O)ccc1O [L99]
> 10 µM

###

- target-or-system: DYRK2 (Homo sapiens, UniProt Q92630)
- Sequence (Q92630 1-601): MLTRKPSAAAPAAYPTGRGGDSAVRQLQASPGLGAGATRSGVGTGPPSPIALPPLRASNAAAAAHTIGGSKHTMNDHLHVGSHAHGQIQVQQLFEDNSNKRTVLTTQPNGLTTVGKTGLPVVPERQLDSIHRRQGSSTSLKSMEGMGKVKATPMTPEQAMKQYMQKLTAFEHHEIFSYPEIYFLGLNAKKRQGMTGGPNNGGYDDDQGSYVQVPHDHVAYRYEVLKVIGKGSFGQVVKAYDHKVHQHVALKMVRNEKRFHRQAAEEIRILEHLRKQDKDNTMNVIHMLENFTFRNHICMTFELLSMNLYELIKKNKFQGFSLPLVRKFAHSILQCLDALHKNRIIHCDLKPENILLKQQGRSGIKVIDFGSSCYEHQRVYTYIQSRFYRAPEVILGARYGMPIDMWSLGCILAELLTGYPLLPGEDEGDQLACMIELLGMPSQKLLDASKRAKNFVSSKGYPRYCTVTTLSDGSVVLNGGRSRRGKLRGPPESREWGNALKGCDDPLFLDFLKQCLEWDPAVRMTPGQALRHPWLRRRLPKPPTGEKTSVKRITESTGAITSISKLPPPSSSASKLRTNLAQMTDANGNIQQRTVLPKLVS
- measurement-notes: Recombinant protein kinase assay, DYRK2
- assay-setup: 15 µM ATP
metric: IC50

Identify IC50 associated with the compound COc1cc(/C=C2\N=C(Nc3ccc(N4CCN(C)CC4)cc3)NC2=O)ccc1O
15 nM

Hey, just so you know, these numbers are from paper PMC6176987.
